Test system: M14 melanoma
assay_explanation: NCI tumour cell line growth inhibition, 48 h

[
  {
    "compound": "CC1(C(=O)O)CCCC1C(=O)O (stereo unspecified)",
    "TGI": "> 100 µM"
  },
  {
    "compound": "COc1c(C)c2nc3ccccc3[nH]c2c2c(=O)ccnc12",
    "TGI": "> 100 µM"
  },
  {
    "compound": "CC1(CNCc2ccccc2)CC(CCc2ccccc2)N(C(=O)c2ccc([N+](=O)[O-])cc2)C1Cc1ccc(O)cc1 (stereo unspecified)",
    "TGI": "28 µM"
  },
  {
    "compound": "C[C@]12CC[C@H]3[C@@H](CC=C4C[C@@H](O)CC[C@@]43C)[C@@H]1CC[C@@H]2N(CCO)CCO",
    "TGI": "> 100 µM"
  },
  {
    "compound": "COc1cc2c(/C=C3/C(=O)Nc4ccccc43)c(Cl)[nH]c2cc1C",
    "TGI": "17 µM"
  },
  {
    "compound": "CC(C)(CC(=O)Nc1ccccc1)C(=O)O",
    "TGI": "> 100 µM"
  }
]

---

System: MOLT-4 leukemia
assay_explanation: NCI tumour cell line growth inhibition, 48 h
GI50 listing for selected compounds.

[
  {
    "smiles_code": "Nc1cc(N)c2nc(-c3ccccc3)c(Nc3ccc(Cl)c(Cl)c3)nc2c1",
    "GI50": "4.05 µM"
  },
  {
    "smiles_code": "O=C1Nc2c(C(F)(F)F)cccc2[C@]1(c1ccc(O)cc1)c1ccc(OC(F)(F)F)cc1",
    "GI50": "5.34 µM"
  },
  {
    "smiles_code": "CC/C(=C(/c1ccc(O)cc1)c1ccc(OCCNC)cc1)c1ccccc1",
    "GI50": "2.46 µM"
  },
  {
    "smiles_code": "CCCn1cnc2c(SCc3ccccc3Cl)nc(N)nc21",
    "GI50": "5.22 µM"
  },
  {
    "smiles_code": "FC(F)(F)c1cccc(Nc2nccc(-c3cnn4nc(-c5ccccc5)ccc34)n2)c1",
    "GI50": "> 16.5 µM"
  }
]

---

Tested on: RXF 393 renal
assay_explanation: NCI tumour cell line growth inhibition, 48 h

[
  {
    "compound": "Cc1ccc(NC(=O)c2cccc(N(C)C)c2)cc1NC(=O)c1ccc(O)cc1",
    "measured_target": "RXF 393 renal",
    "TGI": "> 66.1 µM"
  },
  {
    "compound": "Nc1c(C(=O)c2ccc(Cl)cc2)[nH]c(NCc2ccccc2)c1C(=S)Nc1ccccc1",
    "measured_target": "RXF 393 renal",
    "TGI": "4.16 µM"
  },
  {
    "compound": "O=C1CSC(c2cccs2)N1c1nc2cc3sc(N4C(=O)CSC4c4cccs4)nc3cc2s1 (stereo unspecified)",
    "measured_target": "RXF 393 renal",
    "TGI": "> 50 µM"
  },
  {
    "compound": "N#Cc1cc2c(cc1Cl)Sc1nccn1S2(=O)=O",
    "measured_target": "RXF 393 renal",
    "TGI": "15.5 µM"
  },
  {
    "compound": "CCCn1cnc2c(SCc3ccccc3Cl)nc(N)nc21",
    "measured_target": "RXF 393 renal",
    "TGI": "24.8 µM"
  },
  {
    "compound": "C=c1c(OC)c(OC)c(O)c2c1=c1cc([N+](=O)[O-])cc(OC)c1=N2",
    "measured_target": "RXF 393 renal",
    "TGI": "> 100 µM"
  },
  {
    "compound": "Brc1cccc(N=NN2CCCC2)c1",
    "measured_target": "RXF 393 renal",
    "TGI": "> 100 µM"
  },
  {
    "compound": "Cc1cn(C(C)OCCN2C(=O)c3ccccc3C2=O)c(=O)[nH]c1=O (stereo unspecified)",
    "measured_target": "RXF 393 renal",
    "TGI": "> 100 µM"
  },
  {
    "compound": "NC(=O)c1cc2ccccc2o/c1=N/O",
    "measured_target": "RXF 393 renal",
    "TGI": "> 100 µM"
  },
  {
    "compound": "O=C(CC1=NCCN1)c1ccccc1",
    "measured_target": "RXF 393 renal",
    "TGI": "> 750 µM"
  },
  {
    "compound": "C=CC(=O)N1CC2(CCN(c3nc(OC4CCN(CCCOC)CC4)nc4c(OCC(F)(F)F)c(-c5c(C)ccc6[nH]ncc56)c(C5CC5)cc34)CC2)C1",
    "measured_target": "RXF 393 renal",
    "TGI": "3.73 µM"
  },
  {
    "compound": "Clc1ccc(OCc2nnc(CCCCCCCCc3nnc(COc4ccc(Cl)cc4)n3Nc3ccccc3)n2Nc2ccccc2)cc1",
    "measured_target": "RXF 393 renal",
    "TGI": "70.8 µM"
  },
  {
    "compound": "CC1CC(=O)Nc2nc3ccccc3n21 (stereo unspecified)",
    "measured_target": "RXF 393 renal",
    "TGI": "> 100 µM"
  },
  {
    "compound": "CC[CH2][Sn]([CH2]CC)([O]C(=O)c1cccnc1SC)[O][Sn]([CH2]CC)([CH2]CC)[O]C(=O)c1cccnc1SC",
    "measured_target": "RXF 393 renal",
    "TGI": "0.342 µM"
  },
  {
    "compound": "Cc1cn([C@@H]2C[C@H]2CO)c(=O)[nH]c1=O",
    "measured_target": "RXF 393 renal",
    "TGI": "> 100 µM"
  },
  {
    "compound": "C/C(CC(=O)Nc1ccc(C)cc1C)=N/N=C(N)N",
    "measured_target": "RXF 393 renal",
    "TGI": "> 100 µM"
  },
  {
    "compound": "N#Cc1c(-c2ccc(F)cc2)nc(N/N=C/c2c[nH]c3ccccc23)nc1N1CCOCC1",
    "measured_target": "RXF 393 renal",
    "TGI": "3.97 µM"
  },
  {
    "compound": "CN(C)S(=O)(=O)Nc1nnc(S(N)(=O)=O)s1",
    "measured_target": "RXF 393 renal",
    "TGI": "> 100 µM"
  },
  {
    "compound": "COc1ccc(NC2=CC(=O)C(=O)c3ccccc32)nn1",
    "measured_target": "RXF 393 renal",
    "TGI": "3.78 µM"
  },
  {
    "compound": "Cc1cc2c(cc1C)[n+](=O)c(C(=O)C/C(=N/NC(=O)CC#N)C(=O)Nc1ccccc1C(F)(F)F)c(C)n2[O-]",
    "measured_target": "RXF 393 renal",
    "TGI": "> 100 µM"
  },
  {
    "compound": "Cc1c2ncccc2cc2oc3ccccc3c(=O)c12",
    "measured_target": "RXF 393 renal",
    "TGI": "> 100 µM"
  }
]
